Data credit: patent US20230330254A1

- System Name: full-length human GLP1R on HEK293/CRE-Luc/hGLP1R cells (human, UniProt P43220 24-463)
- Assay Name: cell-based or functional assay
Property Measured: CRE-luc S/N (fold)
Provide only the numeric value, understood in fold.

QUERY: Param item = COMP Anti-GLP1R mAb1 conjugated to LP3 (antibody, human IgG4 S228P, kappa, V domains shown, azido-PEG3-amine on the Gln of the N-terminal Q-tag LLQGSG, clicked to LP3 (DIBAC-suc-PEG12-P9)) VH: QVTLKESGPGILQPSQTLSLTCSFSGFSLSTSGTGVGWIRQPSGKGLEWLSHIWWDDVKRYNPALKSRLTISRDTSYSQVFLRIASVDTADTATYYCARILDGTGPMDYWGQGTSVTVSS VL: QIVLTQSPAIMSASPGEKVTMTCSASSRVTYMHWYQQRSGTSPKRWIYDTSKLASGVPARFSGSGSGTSYSLTISSMEAEDAATYYCQQWGNNPQYTFGGGTRLEIKR ; retrieve measured CRE-luc S/N.
RESULT: 272

QUERY: Bench note: what CRE-luc S/N did COMP Anti-GLP1R mAb1 conjugated to LP2 (antibody, human IgG4 S228P, kappa, V domains shown, azido-PEG3-amine on the Gln of the N-terminal Q-tag LLQGSG, clicked to LP2 (DIBAC-suc-PEG8-P9)) VH: QVTLKESGPGILQPSQTLSLTCSFSGFSLSTSGTGVGWIRQPSGKGLEWLSHIWWDDVKRYNPALKSRLTISRDTSYSQVFLRIASVDTADTATYYCARILDGTGPMDYWGQGTSVTVSS VL: QIVLTQSPAIMSASPGEKVTMTCSASSRVTYMHWYQQRSGTSPKRWIYDTSKLASGVPARFSGSGSGTSYSLTISSMEAEDAATYYCQQWGNNPQYTFGGGTRLEIKR show?
RESULT: 227

QUERY: Would you kindly share the measured CRE-luc S/N for COMP Anti-GLP1R mAb1 conjugated to LP1 (antibody, human IgG4 S228P, kappa, V domains shown, azido-PEG3-amine on the Gln of the N-terminal Q-tag LLQGSG, clicked to LP1 (DIBAC-suc-PEG4-P9)) VH: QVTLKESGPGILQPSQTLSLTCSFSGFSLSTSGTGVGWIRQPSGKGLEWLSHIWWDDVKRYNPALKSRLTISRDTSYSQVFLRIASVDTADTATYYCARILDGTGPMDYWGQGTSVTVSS VL: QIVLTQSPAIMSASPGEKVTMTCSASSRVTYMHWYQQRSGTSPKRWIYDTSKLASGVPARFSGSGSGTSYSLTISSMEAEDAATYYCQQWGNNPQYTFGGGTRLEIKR ?
RESULT: 213

QUERY: Please look up its CRE-luc S/N: COMP Anti-GLP1R mAb1 conjugated to LP4 (antibody, human IgG4 S228P, kappa, V domains shown, azido-PEG3-amine on the Gln of the N-terminal Q-tag LLQGSG, clicked to LP4 (DIBAC-suc-PEG24-P9)) VH: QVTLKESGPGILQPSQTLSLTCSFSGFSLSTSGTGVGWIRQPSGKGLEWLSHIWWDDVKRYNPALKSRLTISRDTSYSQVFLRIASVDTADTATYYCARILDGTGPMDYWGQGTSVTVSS VL: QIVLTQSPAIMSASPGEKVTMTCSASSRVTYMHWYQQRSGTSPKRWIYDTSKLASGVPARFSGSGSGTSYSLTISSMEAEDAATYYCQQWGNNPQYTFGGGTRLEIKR
RESULT: 284
